Target: Serine/threonine-protein kinase PAK 4 (Homo sapiens)
Conditions: at 1 µM
Measured property: residual activity

                                    molecule  measured_property  observed_result
 0  Nc1n[nH]c2nnc(-c3c(-c4ccccc4)nn4ccccc34)cc12  residual activity              94%
 1  O=C1Nc2ccccc2/C1=C1/Nc2ccccc2/C1=N\OCCC(O)CO (stereo not given)  residual activity              44%
 2  O=c1c2ccccc2[nH]c(=S)n1CCN1CCC(=C(c2ccc(F)cc2)c2ccc(F)cc2)CC1  residual activity             106%
 3  NC(=O)c1ccc2[nH]c(-c3ccc(Oc4ccc(Cl)cc4)cc3)nc2c1  residual activity              97%
 4              Cc1ccc(S(=O)(=O)/C=C/C#N)cc1  residual activity              99%
 5          c1ccc(-c2n[nH]c3c2oc2ccccc23)cc1  residual activity              95%
 6       N#CC(C#N)=C(N)/C(C#N)=C/c1ccc(O)cc1  residual activity              98%
 7  Nc1nc(Nc2ccc(S(N)(=O)=O)cc2)nn1C(=S)Nc1c(F)cccc1F  residual activity               6%
 8  N#C/C(=C(\N)Sc1ccc(N)cc1)c1ccccc1C(F)(F)F  residual activity             101%
 9  O=C1Nc2ccc(Br)cc2/C1=C\c1cc2c([nH]1)CCCC2  residual activity              84%
10  COc1cc2ncnc(Nc3ccc(Oc4ccccc4)cc3)c2cc1OC  residual activity              94%
11          COc1cccc(-c2cc(=O)c3ccccc3o2)c1N  residual activity             105%
12  C[C@@H](N)[C@H]1CC[C@H](C(=O)Nc2ccncc2)CC1  residual activity              92%
13  O=Nc1c(-c2c(O)[nH]c3ccccc23)[nH]c2ccccc12  residual activity              55%
14  O=C1Nc2cc(Br)ccc2/C1=C1/Nc2ccccc2/C1=N\O  residual activity              30%
15  O=C(Nc1cccc(Nc2nccc(Nc3cccc(C(F)(F)F)c3)n2)c1)C1CC1  residual activity              80%
16           Cc1nc2cc3nc(-c4cccs4)cnc3cc2n1C  residual activity              95%
17  CN(C)CCCn1cc(C2=C(c3c[nH]c4ccccc34)C(=O)NC2=O)c2ccccc21  residual activity             102%
18                 CC(=O)c1ccc(N2CCOCC2)cc1O  residual activity             100%
19  Cc1cccc(-c2[nH]c(C(C)(C)C)nc2-c2ccc3c(c2)OCO3)n1  residual activity              97%

====

residual activity: recorded values
Target: Serine/threonine-protein kinase Sgk3 (Homo sapiens)
Details: at 10 µM
Measured property: residual activity (%)

In [3]: df
Out[3]:
                                smiles_entry  measured_property  observed_result
 0       Cn1cnc2cc3c(Nc4cccc(Br)c4)ncnc3cc21  residual activity               89
 1  N#C/C(=C(\N)Sc1ccc(N)cc1)c1ccccc1C(F)(F)F  residual activity               93
 2      CN(C)c1ccc(/C=C2\C(=O)Nc3ccccc32)cc1  residual activity               81
 3       CCN(CC)CCCCN1c2ccccc2Oc2ccc(Cl)cc21  residual activity              105
 4       N#CC(C#N)=C(N)/C(C#N)=C/c1ccc(O)cc1  residual activity               81
 5  C[C@@H](N)[C@H]1CC[C@H](C(=O)Nc2ccncc2)CC1  residual activity              105
 6     CCC(=O)Nc1ccc2ncnc(Nc3cccc(Br)c3)c2c1  residual activity               95
 7  CC(C)n1cnc2/c(=N/c3cccc(Cl)c3)nc(NCCO)[nH]c21  residual activity               82
 8  O=C1NC(=O)c2cc(Nc3ccc(F)cc3)c(Nc3ccc(F)cc3)cc21  residual activity               96
 9               Cc1cc2ncc(-c3ccccc3)nc2cc1C  residual activity               90
10               c1ccc2c(-c3ccncc3)c[nH]c2c1  residual activity               54
